Measurement target: UniProtKB Q9Y233
Sequence (Q9Y233 whole entry): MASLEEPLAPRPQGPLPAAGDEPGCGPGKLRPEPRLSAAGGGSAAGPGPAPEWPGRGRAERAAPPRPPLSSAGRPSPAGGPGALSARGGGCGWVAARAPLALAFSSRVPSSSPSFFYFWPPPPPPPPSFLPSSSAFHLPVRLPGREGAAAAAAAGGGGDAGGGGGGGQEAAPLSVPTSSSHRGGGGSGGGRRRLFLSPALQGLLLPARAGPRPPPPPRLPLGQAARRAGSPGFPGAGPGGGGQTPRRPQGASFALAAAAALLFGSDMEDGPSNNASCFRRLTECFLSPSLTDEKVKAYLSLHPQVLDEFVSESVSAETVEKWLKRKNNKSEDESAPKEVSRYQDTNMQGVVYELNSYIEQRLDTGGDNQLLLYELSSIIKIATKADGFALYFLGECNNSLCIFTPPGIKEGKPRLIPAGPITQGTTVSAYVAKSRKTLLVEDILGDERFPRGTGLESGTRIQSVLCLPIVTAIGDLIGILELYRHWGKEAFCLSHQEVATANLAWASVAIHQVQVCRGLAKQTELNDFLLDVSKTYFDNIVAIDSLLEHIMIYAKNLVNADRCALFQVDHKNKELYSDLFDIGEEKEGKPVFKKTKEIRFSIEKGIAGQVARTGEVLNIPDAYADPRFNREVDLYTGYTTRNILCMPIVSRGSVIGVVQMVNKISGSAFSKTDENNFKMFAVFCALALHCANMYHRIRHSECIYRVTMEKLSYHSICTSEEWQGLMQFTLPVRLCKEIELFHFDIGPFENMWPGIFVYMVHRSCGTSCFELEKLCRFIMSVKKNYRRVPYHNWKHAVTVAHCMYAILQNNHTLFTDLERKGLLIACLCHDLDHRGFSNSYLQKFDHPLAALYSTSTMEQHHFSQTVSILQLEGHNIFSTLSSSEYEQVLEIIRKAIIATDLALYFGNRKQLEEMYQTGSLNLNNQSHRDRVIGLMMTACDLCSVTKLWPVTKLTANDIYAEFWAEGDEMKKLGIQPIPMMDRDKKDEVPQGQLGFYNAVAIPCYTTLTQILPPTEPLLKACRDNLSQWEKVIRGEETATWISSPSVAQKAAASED
pKi: −log10 of the molar value.
Observation type: pKi

In [3]: df
Out[3]:
                               given_smiles  measurement_target  value_reported
0  Cc1ccc([C@H]2C[C@@H]2COc2nc(C)ncc2-c2cncnc2)nc1    UniProtKB Q9Y233            8.59
1  Cc1ccc([C@H]2C[C@@H]2COc2nc(C)ncc2-c2cccc(C(F)(F)F)c2)nc1    UniProtKB Q9Y233            9.08

a. Cc1ncc(-c2ccc(C(C)(C)O)nc2)c(OC[C@H]2C[C@@H]2c2ccc(F)cn2)n1
b. COc1ccc([C@H]2C[C@@H]2COc2nc(C)ncc2-c2ccc(Cl)nc2)nc1
Return label of the item with the larger pKi. Candidates: a , b . Which one? Tell me its label.
a
